Data provenance: the supplement of paper PMC13380429

- Tested on: Vero E6 infected with SARS-CoV-2
- measurement-protocol: inhibition of SARS-CoV-2 cytopathic effect; higher = more antiviral protection, active = above 15
- condition: 10000 nM; 48 h
recorded-endpoint: inhibition of SARS-CoV-2 cytopathic effect (%)

molecule=NC(=O)c1ccc(N(C(N)=O)c2c(F)cccc2F)nc1-c1ccc(F)cc1F uom=% observed_value=-1.52
molecule="CN(C)CCC(c1ccc(Br)cc1)c1ccccn1 (centres undefined) [brompheniramine]" uom=% observed_value=-4.65
molecule="O=C(NCc1ccc(F)cc1)N1CCN2C(=O)OC(c3ccccc3)(c3ccccc3)[C@@H]2C1 (racemic)" uom=% observed_value=-6.01
molecule="Cc1cc(Nc2cc(N3CCN(C)CC3)nc(Sc3ccc(NC(=O)C4CC4)cc3)n2)n[nH]1 [tozasertib]" uom=% observed_value=-4.18
molecule="CCc1cc2c(cc1N1CCC(N3CCOCC3)CC1)C(C)(C)c1[nH]c3cc(C#N)ccc3c1C2=O [alectinib]" uom=% observed_value=0.15
molecule="Cc1noc(NS(=O)(=O)c2ccc(N)cc2)c1C [sulfafurazole]" uom=% observed_value=0.12
molecule=CC(C)C[C@@H](NC(=O)[C@H](Cc1ccccc1)NC(=O)CNC(=O)[C@@H](C)NC(=O)[C@@H](N)Cc1ccc(O)cc1)C(=O)O uom=% observed_value=0
molecule=N[C@H]1CC[C@H](N[C@@H]2C[C@H]2c2ccccc2)CC1 uom=% observed_value=1.79
molecule="COc1ccc(Nc2nccc(NCCO)n2)cc1 [cardiogenol-C]" uom=% observed_value=1.2

* * *

Recorded inhibition of SARS-CoV-2 cytopathic effect, one value per entry.
- System: Vero E6 infected with SARS-CoV-2
- measurement-protocol: inhibition of SARS-CoV-2 cytopathic effect; higher = more antiviral protection, active = above 15
- condition: 1 nM; 48 h
recorded-endpoint: inhibition of SARS-CoV-2 cytopathic effect (%)

molecule="O=C(OCC(O)CO)c1ccccc1Nc1ccnc2c(C(F)(F)F)cccc12 (stereo not given)" uom=% observed_value=0.71
molecule=CC(C)OC(=O)C1=CN(C(=O)c2ccc(F)c(F)c2)CC(C)(C)c2c1[nH]c1ccccc21 uom=% observed_value=-2.29
molecule="CN(C)CCOC(C)(c1ccccc1)c1ccccn1 (stereo not given)" uom=% observed_value=-1.38
molecule="CCOC(=O)c1cncn1[C@H](C)c1ccccc1 [etomidate]" uom=% observed_value=0.18
molecule="Nc1ccc2cc3ccc(N)cc3nc2c1 [proflavine-hemisulfate]" uom=% observed_value=-1.46
molecule=CCCCOc1cc(C(=O)OCCN(CC)CC)ccc1N uom=% observed_value=0.54
molecule=CN1CCN(c2c(F)cc3c(=O)c(C(=O)O)cn4c3c2SCC4)CC1 uom=% observed_value=0.11
molecule=Cc1ccc(S(=O)(=O)Nc2ccc3c(c2)c(C(=O)C(F)(F)F)cn3CC(=O)N[C@@H](CC(C)C)C(=O)O)cc1 uom=% observed_value=0.38
molecule=CC(C)(C)OC(=O)c1ncn2c1[C@@H]1CCCN1C(=O)c1c(Br)cccc1-2 uom=% observed_value=-1.38
molecule=O=c1[nH]ccc2cc(OC3CCNCC3)ccc12 uom=% observed_value=1.91
molecule=CCCCCCNC(=O)Nc1ccc(S(=O)(=O)Nc2ccc(CCNC[C@H](O)COc3ccc(O)cc3)cc2)cc1 uom=% observed_value=0.66
molecule="Nc1ccc(S(N)(=O)=O)cc1 [sulfanilamide]" uom=% observed_value=-4.21
molecule=Nc1nc(=O)[nH]cc1F uom=% observed_value=-1.58
molecule=CC(C)Oc1ccc2c(=O)c3cc(C(=O)O)ccc3oc2c1 uom=% observed_value=-2.35
molecule=CCCCOc1nc(N)c2c(n1)N(Cc1cccc(CN3CCCC3)c1)CC(=O)N2 uom=% observed_value=0.32
molecule=C=C1C[C@]23C[C@@]1(O)CC[C@H]2[C@@]12C=C[C@H](O)[C@@](C)(C(=O)O1)[C@H]2[C@@H]3C(=O)O uom=% observed_value=0.13
molecule=C[C@@H]1CN(Cc2ccc(F)cc2)CCN1C(=O)COc1ccc(Cl)cc1NC(N)=O uom=% observed_value=-1.77
molecule="CSc1ccc2c(c1)N(CCC1CCCCN1C)c1ccccc1S2 (stereo not given)" uom=% observed_value=1.41
molecule=CCOC(=O)Nc1cc(-c2ccc(C)c(NS(C)(=O)=O)c2)nn2c(C)nnc12 uom=% observed_value=-4.03
molecule="CC(C)NCC(O)COc1ccc(COCCOC(C)C)cc1 (stereo not given)" uom=% observed_value=-5.27

* * *

- Test system: Vero E6 infected with SARS-CoV-2
- measurement-protocol: inhibition of SARS-CoV-2 cytopathic effect; higher = more antiviral protection, active = above 15
- condition: 100 nM; 48 h
// reported inhibition of SARS-CoV-2 cytopathic effect per item
recorded-endpoint: inhibition of SARS-CoV-2 cytopathic effect (%)

molecule="N#Cc1nn(-c2c(Cl)cc(C(F)(F)F)cc2Cl)c(N)c1[S+]([O-])C(F)(F)F (configuration not stated)" observed_value=1.21
molecule="CNCC(O)c1ccc(OC(=O)C(C)(C)C)c(OC(=O)C(C)(C)C)c1 (configuration not stated)" observed_value=1.77
molecule=COc1c(-c2ccc3cc(NS(C)(=O)=O)ccc3c2)cc(-n2ccc(=O)[nH]c2=O)cc1C(C)(C)C observed_value=0.27
molecule=c1ccc(-c2nc(CN3CCN(c4ncccn4)CC3)c[nH]2)cc1 observed_value=-3.72
molecule=O=C(O)CCCCC(=O)O observed_value=-0.01
molecule=COc1cn(-c2ccc(-n3cccn3)cc2F)nc(-c2ccnn2-c2ccccc2)c1=O observed_value=0.79
molecule=NCCCC[C@H](NC(=O)[C@@H](Cc1cc(Br)c(O)c(Br)c1)NC(=O)N1CCC(N2Cc3ccccc3NC2=O)CC1)C(=O)N1CCN(c2ccncc2)CC1 observed_value=2.08
molecule="CC(C)[C@H](N)C(=O)OCC(CO)OCn1cnc2c(=O)nc(N)[nH]c21 (mixture of isomers)" observed_value=4.51
molecule=CC1(C)CC(=O)c2c(C(F)(F)F)nn(-c3ccc(C(N)=O)c(N[C@H]4CC[C@H](OC(=O)CN)CC4)c3)c2C1 observed_value=2.1
molecule=CCOc1ccc(C[C@H]2NC(=O)CCSSC[C@@H](C(=O)N3CCC[C@H]3C(=O)N[C@@H](CCCN)C(=O)NCC(N)=O)NC(=O)[C@H](CC(N)=O)NC(=O)[C@H]([C@@H](C)O)NC(=O)[C@H]([C@@H](C)CC)NC2=O)cc1 observed_value=-2.35
molecule=CCC(CC)Nc1nc(C)c(-c2ccc(OC(F)(F)F)cc2OC)nc1OC observed_value=1.61
molecule=Oc1c(I)cc(I)c(O)c1I observed_value=-0.65
molecule=COc1ccc2c(C)nc(Nc3nc(C)c(C)c(O)n3)nc2c1 observed_value=1.24
molecule="CN1C2CCC1CC(OC(c1ccccc1)c1ccc(Cl)cc1)C2 (configuration not stated)" observed_value=-1.76
molecule=CCN(C(C)=O)c1cccc(-c2ccnc3c(C#N)cnn23)c1 observed_value=-2.79
molecule=CN1CCC[C@@H]1Cc1c[nH]c2ccc(CCS(=O)(=O)c3ccccc3)cc12 observed_value=2.14
molecule=COc1ccc(S(=O)(=O)N(C(C)=O)c2ccccc2/C=C/c2cc[n+]([O-])cc2)cc1 observed_value=-2.17

* * *

# key: entry, value: SARS-CoV-2 infection rate
- Tested on: Vero E6 infected with SARS-CoV-2
- measurement-protocol: SARS-CoV-2 infection rate relative to infected DMSO; higher = more infection, active = 60 or less
- condition: 24 h
recorded-endpoint: SARS-CoV-2 infection rate

compound="CCC1(c2ccc(N)cc2)CCC(=O)NC1=O (stereo not drawn) [aminoglutethimide] (10 µM)" observed_value="110% (inactive)"
compound="Cc1cc(/C=C/C#N)cc(C)c1Nc1ccnc(Nc2ccc(C#N)cc2)n1 [rilpivirine] (0.833333 µM)" observed_value="111% (inactive)"
compound="COc1cc(Nc2ncc(F)c(Nc3ccc4c(n3)NC(=O)C(C)(C)O4)n2)cc(OC)c1OC (10 µM)" observed_value="124% (inactive)"
compound="CC(=O)[C@H]1CC[C@H]2[C@@H]3C[C@H](C)C4=CC(=O)CC[C@]4(C)[C@H]3[C@@H](O)C[C@]12C [medrysone] (10 µM)" observed_value="106% (inactive)"
compound="C=C1C[C@]23C[C@@]1(O)CC[C@H]2[C@@]12C=C[C@H](O)[C@@](C)(C(=O)O1)[C@H]2[C@@H]3C(=O)O (10 µM)" observed_value="109% (inactive)"
compound="CNC[C@H](O)c1ccc(O)c(O)c1 [epinephrine] (10 µM)" observed_value="104% (inactive)"
compound="FC(F)(F)c1ccc(/C=C/c2nc(COc3ccc(CCCCn4ccnn4)cc3)co2)cc1 [mubritinib] (10 µM)" observed_value="96% (inactive)"
compound="Cc1cc(C)cc(C(=O)NOCCCCCC(=O)NO)c1 (10 µM)" observed_value="124% (inactive)"
